Molecular target: T1, human mature TGFβ2 (PeproTech) (Homo sapiens, UniProt P61812)
T1 construct: Transforming Growth Factor-beta 2, human, mature form (cut from the precursor); also called TGFb2; source: bought: PeproTech
T1 sequence (P61812 303-414): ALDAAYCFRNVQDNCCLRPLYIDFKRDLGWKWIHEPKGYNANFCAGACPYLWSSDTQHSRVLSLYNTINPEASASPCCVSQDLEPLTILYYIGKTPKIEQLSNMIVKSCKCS
Assay: SPR; Biacore T200; antibody captured on a Protein A sensor chip (about 90 RU); mature TGFβ isoform injected, five-fold dilutions 0.008 nM to 5 nM; HBS-EP pH 7.4, 150 mM NaCl; 37 °C; 100 μl/min; 3 min association, 60 min dissociation; one-to-one Langmuir model, global fit
Conditions: both partners purified
measurement.name: Kd
Please format your answer as a value with the unit trailing.

- binder: "humanized 4A11 variant 4 (antibody, V domains shown, as the VH of m12 (h4A11.v7): rbt4A11 CDRs and rabbit Vernier residues grafted on human germline IGHV4-59*06; as the VL of m7 (h4A11.v2): rbt4A11 CDRs and rabbit Vernier residues grafted on human germline IGKV1D-39*01; human IgG1; also called h4A11.v4; v4; source: Expi293F, transient, purified (Protein A, SEC)) VH: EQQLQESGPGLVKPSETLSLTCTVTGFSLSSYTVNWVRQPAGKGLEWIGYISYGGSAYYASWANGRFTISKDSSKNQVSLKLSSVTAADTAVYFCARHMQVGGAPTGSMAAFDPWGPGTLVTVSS VL: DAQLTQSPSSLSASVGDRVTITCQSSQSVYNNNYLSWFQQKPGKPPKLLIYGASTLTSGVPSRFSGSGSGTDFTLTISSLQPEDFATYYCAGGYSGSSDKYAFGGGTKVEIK"
  Kd: "10 pM"

For record humanized 4A11 variant 2 (antibody, V domains shown, rbt4A11 CDRs (Kabat and Chothia) and rabbit Vernier residues (VH positions 2, 24, 37, 48, 49, 67, 71, 78, 91, 105) grafted on human germline IGHV3-48*01; has R19, Y79, Q81 (Kabat numbering); rbt4A11 CDRs and rabbit Vernier residues (VL positions 2, 4, 36, 43, 58) grafted on human germline IGKV1D-39*01; human IgG1; also called h4A11.v2; v2; source: Expi293F, transient, purified (Protein A, SEC)) VH: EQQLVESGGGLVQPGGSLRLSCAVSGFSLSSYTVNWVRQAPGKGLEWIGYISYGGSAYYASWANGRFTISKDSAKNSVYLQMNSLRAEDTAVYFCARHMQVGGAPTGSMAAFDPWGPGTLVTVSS VL: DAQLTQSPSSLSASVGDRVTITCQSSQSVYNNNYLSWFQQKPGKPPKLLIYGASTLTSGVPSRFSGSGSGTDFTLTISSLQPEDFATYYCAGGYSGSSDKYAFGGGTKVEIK the listed Kd is 1.4 pM

The origin of these recorded values is paper PMC8595303.
